# System: HeLa Kyoto;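 note: synchronized HeLa Kyoto cells, proteins quantified by TMT10plex mass spectrometry, three biological replicates, mitosis taken 0.5 h after nocodazole release, G1/S directly after double thymidine block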
# assayOverview: thermal stability score vs G1/S (z-score of summed log2 fold changes over temperatures); higher = more thermally stable than in G1/S
# setupConditions: cell cycle stage: early G1 (4.5 h after nocodazole release)
recordedEndpoint: thermal stability score
Could you respond with only the numeric value?

Examples with answers:
[
  {
    "querySequence": "MAAGAAEAAVAAVEEVGSAGQFEELLRLKAKSLLVVHFWAPWAPQCAQMNEVMAELAKELPQVSFVKLEAEGVPEVSEKYEISSVPTFLFFKNSQKIDRLDGAHAPELTKKVQRHASSGSFLPSANEHLKEDLNLRLKKLTHAAPCMLFMKGTPQEPRCGFSKQMVEILHKHNIQFSSFDIFSDEEVRQGLKAYSSWPTYPQLYVSGELIGGLDIIKELEASEELDTICPKAPKLEERLKVLTNKASVMLFMKGNKQEAKCGFSKQILEILNSTGVEYETFDILEDEEVRQGLKAYSNWPTYPQLYVKGELVGGLDIVKELKENGELLPILRGEN [GLRX3]",
    "thermal stability score": 2.12
  },
  {
    "querySequence": "MAQYKGAASEAGRAMHLMKKREKQREQMEQMKQRIAEENIMKSNIDKKFSAHYDAVEAELKSSTVGLVTLNDMKAKQEALVKEREKQLAKKEQSKELQMKLEKLREKERKKEAKRKISSLSFTLEEEEEGGEEEEEAAMYEEEMEREEITTKKRKLGKNPDVDTSFLPDRDREEEENRLREELRQEWEAKQEKIKSEEIEITFSYWDGSGHRRTVKMRKGNTMQQFLQKALEILRKDFSELRSAGVEQLMYIKEDLIIPHHHSFYDFIVTKARGKSGPLFNFDVHDDVRLLSDATVEKDESHAGKVVLRSWYEKNKHIFPASRWEPYDPEKKWDKYTIR [FAM50A]",
    "thermal stability score": 1.03
  }
]

Here is another sequence to look at.
For MAAPGPALCLFDVDGTLTAPRQKITKEMDDFLQKLRQKIKIGVVGGSDFEKVQEQLGNDVVEKYDYVFPENGLVAYKDGKLLCRQNIQSHLGEALIQDLINYCLSYIAKIKLPKKRGTFIEFRNGMLNVSPIGRSCSQEERIEFYELDKKENIRQKFVADLRKEFAGKGLTFSIGGQISFDVFPDGWDKRYCLRHVENDGYKTIYFFGDKTMPGGNDHEIFTDPRTMGYSVTAPEDTRRICELLFS [PMM2] on HeLa Kyoto, measured thermal stability score was 12.5
